assay: Hepatocyte stability, dog; format: in vitro ADME, beagle dogs; details: male, beagle, cryopreserved hepatocytes, read-out: CLint measured with hepatocytes, Dog
measurement.name: hepatocyte CLint at 1 µM

Record summary for NC1CCC(S(=O)(=O)N2C3CCC2CC(NC(=O)c2cc(C4CC4)on2)C3)CC1 (stereo not shown) : reported hepatocyte CLint at 1 µM = < 3 µL/min/1e6 cells

----------
assay: in vitro; details: human, plasma, pH 7.4, Human fu (unbound fraction)
measurement.name: fraction unbound at 16 h, 1 µM
Numbers only.

Record summary for NC1CCC(S(=O)(=O)N2C3CCC2CC(NC(=O)c2cc(C4CC4)on2)C3)CC1 (stereo not shown) : reported fraction unbound at 16 h, 1 µM = 0.71

----------
system: panel of 240 cancer cell lines; experiment: Proliferation in a broad panel of 240 cancer cell lines, 2D culture (Eurofins Panlabs Oncopanel); type: cell-based; conditions: Homo sapiens, CAKI-1, Caki-1, Kidney; read-out: IC50
pIC50: −log10 of the molar value.
measurement.name: pIC50

Record summary for NC1CCC(S(=O)(=O)N2C3CCC2CC(NC(=O)c2cc(C4CC4)on2)C3)CC1 (stereo not shown) [EPZ028862] : reported pIC50 = < 4.60

----------
tested on: panel of 240 cancer cell lines; assay: Proliferation in a broad panel of 240 cancer cell lines, 2D culture (Eurofins Panlabs Oncopanel); format: cell-based; settings: KPL-1, KPL-1, Breast; read-out: IC50
pIC50: −log10 of the molar value.
measurement.name: pIC50

Record summary for NC1CCC(S(=O)(=O)N2C3CCC2CC(NC(=O)c2cc(C4CC4)on2)C3)CC1 (stereo not shown) [EPZ028862] : reported pIC50 = < 4.60

----------
I'd appreciate it if you could supply hepatocyte CLint at 1 µM values for the items below.
assay: Hepatocyte stability, human; type: in vitro ADME, humans; conditions: both sexes, human, cryopreserved hepatocytes, read-out: CLint measured with hepatocytes, Human
Answers are plain numbers, in µL/min/1e6 cells.

{"compound": "O=C(NC1CN(Cc2cnn(Cc3ccc(Cl)cc3)c2)C1)c1cn(C2CC2)nn1", "hepatocyte CLint at 1 µM / µL/min/1e6 cells": 6}

Now take the following compound into account.
Record summary for NC1CCC(S(=O)(=O)N2C3CCC2CC(NC(=O)c2cc(C4CC4)on2)C3)CC1 (centres unmarked) : reported hepatocyte CLint at 1 µM = 4.8

----------
assay: Hepatocyte stability, rat; format: in vitro ADME, SD rats; conditions: male, Sprague-Dawley, rat, cryopreserved hepatocytes, read-out: CLint measured with hepatocytes, Rat
measurement.name: hepatocyte CLint at 1 µM (µL/min/1e6 cells)
Numbers only, in µL/min/1e6 cells.

Record summary for NC1CCC(S(=O)(=O)N2C3CCC2CC(NC(=O)c2cc(C4CC4)on2)C3)CC1 (stereo not shown) [EPZ028862] : reported hepatocyte CLint at 1 µM = 5.2

----------
tested on: panel of 240 cancer cell lines; experiment: Proliferation in a broad panel of 240 cancer cell lines, 2D culture (Eurofins Panlabs Oncopanel); format: cell-based; settings: Homo sapiens, CAL-27, Cal 27, Head and Neck; read-out: IC50
measurement.name: IC50

Record summary for NC1CCC(S(=O)(=O)N2C3CCC2CC(NC(=O)c2cc(C4CC4)on2)C3)CC1 (stereo not shown) [EPZ028862] : reported IC50 = > 25 µM

----------
system: panel of 240 cancer cell lines; test: Proliferation in a broad panel of 240 cancer cell lines, 2D culture (Eurofins Panlabs Oncopanel); type: cell-based; conditions: CML-T1, CML-T1, Haematopoietic and lymphoid; read-out: IC50
measurement.name: IC50

Record summary for NC1CCC(S(=O)(=O)N2C3CCC2CC(NC(=O)c2cc(C4CC4)on2)C3)CC1 (stereo not shown) : reported IC50 = > 25 µM

----------
test system: panel of 240 cancer cell lines; test: Proliferation in a broad panel of 240 cancer cell lines, 2D culture (Eurofins Panlabs Oncopanel); assay type: cell-based; details: Homo sapiens, MDA-MB-453, MDA MB 453, Breast; read-out: IC50
pIC50: −log10 of the molar value.
measurement.name: pIC50

Known value: panel of 240 cancer cell lines pIC50 of the compound NC1CCC(S(=O)(=O)N2C3CCC2CC(NC(=O)c2cc(C4CC4)on2)C3)CC1 (stereo not shown) equals < 4.60

----------
assay: Rat pharmacokinetic study; format: in vivo, male Sprague Dawley rats; conditions: plasma, male Sprague Dawley, IV 1 mg/kg, PO 5 mg/kg
measurement.name: half-life (h)
Answers are plain numbers, in h.

Record summary for NC1CCC(S(=O)(=O)N2C3CCC2CC(NC(=O)c2cc(C4CC4)on2)C3)CC1 (stereo not shown) [EPZ028862] : reported half-life = 2.1

----------
target: SMYD2 (Homo sapiens); experiment: ITC binding assay EPZ033294/SMYD2; parameters: Full length FLAG-SMYD2 and C-terminally Avi-tagged full length SMYD2 (SMYD2-Avi) were cloned into pFastbac vectors; FLAG (N); His tag with TEV cleavage site (N, cleaved yes); made in house; host or cells: Sf9 insect cells (baculovirus); details: 25°C, 50 μM SAM; three test occasions; read-out: dissociation constant KD by ITC
Sequence (Q9NRG4 whole entry): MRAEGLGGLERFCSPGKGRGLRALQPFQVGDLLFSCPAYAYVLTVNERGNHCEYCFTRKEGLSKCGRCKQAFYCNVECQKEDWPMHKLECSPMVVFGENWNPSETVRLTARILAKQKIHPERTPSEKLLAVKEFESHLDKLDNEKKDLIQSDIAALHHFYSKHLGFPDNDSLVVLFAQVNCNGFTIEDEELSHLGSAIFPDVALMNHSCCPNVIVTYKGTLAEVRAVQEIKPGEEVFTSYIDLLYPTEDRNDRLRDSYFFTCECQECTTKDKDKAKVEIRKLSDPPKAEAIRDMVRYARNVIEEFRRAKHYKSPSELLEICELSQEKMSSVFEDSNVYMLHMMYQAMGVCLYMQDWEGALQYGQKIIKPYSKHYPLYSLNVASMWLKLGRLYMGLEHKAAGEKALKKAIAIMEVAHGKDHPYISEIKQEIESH
measurement.name: Kd

Record summary for O=C(NC1CN(Cc2cnn(Cc3ccc(Cl)cc3)c2)C1)c1cn(C2CC2)nn1 [EPZ033294] : reported Kd = 8.3 nM

----------
assay: Mouse pharmacokinetic study; conditions: male, CD-1, mouse, plasma, po, 10 mg/kg
measurement.name: Tmax (h)
Answers are plain numbers, in h.

Record summary for `O=C(NC1CN(Cc2cnn(Cc3ccc(Cl)cc3)c2)C1)c1cn(C2CC2)nn1` : reported Tmax = 1.7

----------
experiment: Mouse pharmacokinetic study; conditions: male, CD-1, mouse, plasma, po, 5 mg/kg
measurement.name: bioavailability

Record summary for NC1CCC(S(=O)(=O)N2C3CCC2CC(NC(=O)c2cc(C4CC4)on2)C3)CC1 (stereo not shown) : reported bioavailability = ~100%

----------
Molecular target: SMYD3 (Homo sapiens)
Sequence (Q9H7B4 1-428): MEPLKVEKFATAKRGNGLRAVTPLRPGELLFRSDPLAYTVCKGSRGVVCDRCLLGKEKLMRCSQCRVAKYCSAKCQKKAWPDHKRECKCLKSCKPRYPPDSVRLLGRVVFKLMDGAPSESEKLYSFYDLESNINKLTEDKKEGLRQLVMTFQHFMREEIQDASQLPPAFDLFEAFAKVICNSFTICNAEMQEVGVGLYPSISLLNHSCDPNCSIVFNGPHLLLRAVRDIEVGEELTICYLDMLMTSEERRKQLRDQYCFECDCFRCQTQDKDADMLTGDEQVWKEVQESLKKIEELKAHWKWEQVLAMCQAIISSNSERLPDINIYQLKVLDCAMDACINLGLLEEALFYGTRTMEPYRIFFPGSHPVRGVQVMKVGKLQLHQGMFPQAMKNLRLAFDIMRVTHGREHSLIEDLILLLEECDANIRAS
Experiment: SMYD3 biochemical methylation assay (3H-SAM, GST-MAP3K2/MEKK2 substrate)
Design: Protein purification of both isoforms of full length SMYD3 was performed as previously reported; made in house
Details: tested in duplicate; read-out: selectivity panel result, SMYD3 (off-target)
I'd appreciate it if you could supply IC50 values for the items below.

For each listed entry, give its IC50.
1. O=C(NC1CN(Cc2cnn(Cc3ccccc3)c2)C1)c1cn(C2CC2)nn1
2. O=C(NC1CN(Cc2cnn(Cc3ccc(Cl)cc3)c2)C1)c1cn(C2CC2)nn1

Reply:
1: > 10 µM; 2: > 10 µM

----------
tested on: panel of 240 cancer cell lines; experiment: Proliferation in a broad panel of 240 cancer cell lines, 2D culture (Eurofins Panlabs Oncopanel); assay type: cell-based; conditions: Homo sapiens, TCC-SUP, TCCSUP, Bladder; read-out: IC50
pIC50: −log10 of the molar value.
measurement.name: pIC50

Record summary for NC1CCC(S(=O)(=O)N2C3CCC2CC(NC(=O)c2cc(C4CC4)on2)C3)CC1 (stereo not shown) : reported pIC50 = < 4.60

----------
test: in vitro; details: male, CD-1, mouse, plasma, pH 7.4
measurement.name: fraction unbound at 16 h, 1 µM
Answers are plain numbers.

Record summary for NC1CCC(S(=O)(=O)N2C3CCC2CC(NC(=O)c2cc(C4CC4)on2)C3)CC1 (stereo not shown) [EPZ028862] : reported fraction unbound at 16 h, 1 µM = 0.51

----------
system: panel of 240 cancer cell lines; test: Proliferation in a broad panel of 240 cancer cell lines, 2D culture (Eurofins Panlabs Oncopanel); type: cell-based; settings: Homo sapiens, BFTC-905, BFTC-905, Bladder; read-out: IC50
measurement.name: IC50

Record summary for NC1CCC(S(=O)(=O)N2C3CCC2CC(NC(=O)c2cc(C4CC4)on2)C3)CC1 (stereo not shown) [EPZ028862] : reported IC50 = > 25 µM

----------
Test system: panel of 240 cancer cell lines
Test: Proliferation in a broad panel of 240 cancer cell lines, 2D culture (Eurofins Panlabs Oncopanel)
Assay type: cell-based
Settings: Homo sapiens, SNB-19, SNB-19, CNS; read-out: IC50
Procedure: Cell lines used in these experiments were obtained from the following sources and were cultured according to conditions specified by the respective cell banks. […] The cell lines listed above were tested for mycoplasma and were negative. Cells were authenticated by STR method or vendor protocols. All 313 cell lines in the CRIPSR pooled screen were purchased from commercial vendors and were STR authenticated and mycoplasma negative. […]
measurement.name: IC50

Record summary for NC1CCC(S(=O)(=O)N2C3CCC2CC(NC(=O)c2cc(C4CC4)on2)C3)CC1 (stereo not shown) [EPZ028862] : reported IC50 = > 25 µM
